target: 5-hydroxytryptamine receptor 7 (Homo sapiens, UniProt P34969); test: Radiolabel Binding Assay: A stock concentration of 5 nM [3H]LSD (lysergic acid diethyl amide) is prepared in 50 mM Tris-HCl, 10 mM MgCl2, 1 mM EDTA, pH 7.4 (Assay Buffer). Aliquots (50 μl) of radioligand are dispensed into the wells of a 96-well plate containing 100 μl of Assay Buffer. Duplicate 50-μl aliquots of the compound of the disclosure test and chlorpromazine positive control reference compound serial dilutions are added.Membrane fractions of cells expressing recombinant 5HT7 receptors (50 μL) are dispensed into each well. The membranes are prepared from stably tranfected cell lines expressing 5HT7 receptors cultured on 10-cm plates by harvesting PBS-rinsed monolayers, resuspending and lysing in chilled, hypotonic 50 mM Tris-HCl, pH 7.4, centrifuging at 20,000×g, decanting the supernatant and storing at −80° C.; the membrane preparations are resuspended in 3 ml of chilled Assay Buffer and homogenized by several passages through a 26 gauge needle before using in the assay.
Sequence (P34969 whole entry): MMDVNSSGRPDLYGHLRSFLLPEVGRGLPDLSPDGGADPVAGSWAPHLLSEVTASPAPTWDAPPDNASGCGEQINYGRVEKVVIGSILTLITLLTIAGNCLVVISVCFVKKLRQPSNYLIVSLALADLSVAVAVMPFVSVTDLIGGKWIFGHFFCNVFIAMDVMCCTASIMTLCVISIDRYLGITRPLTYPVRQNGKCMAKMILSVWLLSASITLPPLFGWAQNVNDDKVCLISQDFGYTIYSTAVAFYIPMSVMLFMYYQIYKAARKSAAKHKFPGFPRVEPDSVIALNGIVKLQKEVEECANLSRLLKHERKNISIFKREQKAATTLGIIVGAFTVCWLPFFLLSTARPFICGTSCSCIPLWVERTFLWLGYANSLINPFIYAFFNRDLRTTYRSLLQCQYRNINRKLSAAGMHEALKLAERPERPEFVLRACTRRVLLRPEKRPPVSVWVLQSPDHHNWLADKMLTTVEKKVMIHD
pIC50: −log10 of the molar value.
This section presents compounds with their documented pIC50 values.

>  <compound>
CCC1(CC)CC(CCN2CCN(c3ccccc3O)CC2)OC1=O (stereo unspecified)

>  <system.tested>
5-hydroxytryptamine receptor 7 (Homo sapiens, UniProt P34969)

>  <pIC50>
6.81

$$$$
>  <compound>
CCC1(CC)CC(CCN2CCN(c3ccccc3C)CC2)OC1=O (stereo unspecified)

>  <system.tested>
5-hydroxytryptamine receptor 7 (Homo sapiens, UniProt P34969)

>  <pIC50>
6.98

$$$$
>  <compound>
O=C1OC(CCN2CCN(c3ccc(C(F)(F)F)cn3)CC2)CC12CCCCC2 (stereo unspecified)

>  <system.tested>
5-hydroxytryptamine receptor 7 (Homo sapiens, UniProt P34969)

>  <pIC50>
6.60

$$$$
>  <compound>
CCC1(CC)CC(CCN2CCN(C3CCCCC3)CC2)OC1=O (stereo unspecified)

>  <system.tested>
5-hydroxytryptamine receptor 7 (Homo sapiens, UniProt P34969)

>  <pIC50>
5.43

$$$$
>  <compound>
COc1ccccc1N1CCN(CCC2CC3(CCCCC3)C(=O)O2)CC1 (stereo unspecified)

>  <system.tested>
5-hydroxytryptamine receptor 7 (Homo sapiens, UniProt P34969)

>  <pIC50>
7.14

$$$$
>  <compound>
O=C1OC(CCN2CCN(c3cccnc3)CC2)CC12CCCCC2 (stereo unspecified)

>  <system.tested>
5-hydroxytryptamine receptor 7 (Homo sapiens, UniProt P34969)

>  <pIC50>
6.13

$$$$
